- Experiment description: Tmax value after 30 mg/kg po dose in Dogs
- Assay type: ADME, organism-based, Canis lupus familiaris
- Parameters: dose 30 mg/kg, route oral
- Measurement context: dog, in vivo
Readout kind: Tmax (h)
Numbers only, in h.

Entry Cc1cc(C(=O)Nc2cccn([C@@H](Cc3ccc(F)c(F)c3)C(=O)N[C@H](/C=C/C(=O)OC(C)C)C[C@@H]3CCNC3=O)c2=O)no1 ; Tmax = 1.17

----------
Please go through the items and note down their pEC50.
- System: Human rhinovirus A protease (Human rhinovirus sp.)
- Sequence (Q4U254 whole entry): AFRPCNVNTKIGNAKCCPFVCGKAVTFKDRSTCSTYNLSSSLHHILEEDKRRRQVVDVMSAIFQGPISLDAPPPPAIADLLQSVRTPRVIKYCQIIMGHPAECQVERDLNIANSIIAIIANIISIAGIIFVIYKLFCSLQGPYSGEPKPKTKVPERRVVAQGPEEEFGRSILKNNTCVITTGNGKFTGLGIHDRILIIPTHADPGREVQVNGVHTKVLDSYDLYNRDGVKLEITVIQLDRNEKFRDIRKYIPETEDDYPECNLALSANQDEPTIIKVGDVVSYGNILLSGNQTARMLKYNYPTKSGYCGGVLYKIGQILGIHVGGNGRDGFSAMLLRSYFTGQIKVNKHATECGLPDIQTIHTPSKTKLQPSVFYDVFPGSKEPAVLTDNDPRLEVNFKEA
- Experiment description: Inhibition of HRV Protease 3CP (serotype 14).
Answers are plain numbers, as −log10 of the molar value.

Hi team, please reply with pEC50 for each item in this list.
1. CCOC(=O)/C=C/[C@H](CCC(N)=O)NC(=O)[C@H](Cc1ccc(F)cc1)n1cccc(NC(=O)OCc2ccccc2)c1=O
2. CCOC(=O)/C=C/[C@H](CCC(N)=O)NC(=O)[C@H](Cc1ccccc1)n1cccc(NC(=O)C(C)(C)C)c1=O
3. CCOC(=O)/C=C/[C@H](CCC(N)=O)NC(=O)[C@H](CC1CCCCC1)n1cccc(NC(=O)OCc2ccccc2)c1=O
4. CCOC(=O)/C=C/[C@H](CCC(N)=O)NC(=O)[C@H](Cc1ccccc1)n1cccc(NC(=O)C2SCCS2)c1=O

1. 7.85
2. 6.29
3. 6.75
4. 6.98

----------
- Experiment description: Loss of compound (%metabolized) after 30 min exposure to human liver microsomes
- Assay type: ADME, Microsome
- Measurement context: read-out: Metabolism
Readout kind: metabolised at 0.5 h (%)
Numbers only, in %.

List metabolised at 0.5 h for every entry below, keeping the order given.
1. CCOC(=O)/C=C/[C@H](C[C@@H]1CCNC1=O)NC(=O)[C@H](Cc1ccc(F)cc1)n1cccc(NC(=O)c2cc(C)on2)c1=O
2. CCOC(=O)/C=C/[C@H](C[C@@H]1CCNC1=O)NC(=O)[C@H](Cc1ccc(F)c(F)c1)n1cccc(NC(=O)c2cc(C)on2)c1=O

1. 95
2. 80

----------
- System: Human rhinovirus A protease (Human rhinovirus sp., UniProt Q4U254)
- Experiment description: Inhibition of HRV Protease 3CP (serotype 14).
Readout kind: pEC50
One number for each entry, as −log10 of the molar value.

Use these answered entries as a reference point.
{"Smiles": "CCOC(=O)/C=C/[C@H](C[C@@H]1CCNC1=O)NC(=O)[C@H](Cc1ccc(F)cc1)n1cccc(NC(=O)c2cc(C)on2)c1=O", "Numeric value": 8.70}
{"Smiles": "CCOC(=O)/C=C/[C@H](CCC(N)=O)NC(=O)[C@H](Cc1ccccc1)n1cccc(NC(C)=O)c1=O", "Numeric value": 6.05}

Moving on to the next molecule.
Measured pEC50, CCOC(=O)/C=C/[C@H](CCC(N)=O)NC(=O)[C@H](Cc1ccccc1)n1cccc(NC(=O)c2cc(Cl)on2)c1=O : 7.62

Source: ChEMBL document CHEMBL1135913
